// values below are reported zone of inhibition at 10 µg/disc
System: Escherichia coli
Assay: Antibacterial activity against Escherichia coli at 10 ug/disc after 24 hrs by disc diffusion method
Assay type: functional
Conditions: read-out: DIZ

>  <Query Smiles>
COC(=O)[C@H](CCCCNC(=O)Nc1ccc(Cl)cc1)NC(=O)CCCc1nc2ccccc2c(=O)[nH]1

>  <zone of inhibition at 10 µg/disc [mm]>
26

$$$$
>  <Query Smiles>
CC(C)(C)OC(=O)NCCCC[C@H](NC(=O)CCc1nc2ccccc2c(=O)[nH]1)C(=O)O

>  <zone of inhibition at 10 µg/disc [mm]>
11

$$$$
>  <Query Smiles>
COC(=O)[C@H](CCCCNC(C)=O)NC(=O)CCc1nc2ccccc2c(=O)[nH]1

>  <zone of inhibition at 10 µg/disc [mm]>
10

$$$$
>  <Query Smiles>
COc1ccc(NC(=O)NCCCC[C@H](NC(=O)CCc2nc3ccccc3c(=O)[nH]2)C(=O)O)cc1

>  <zone of inhibition at 10 µg/disc [mm]>
25

$$$$
>  <Query Smiles>
COC(=O)[C@H](CCCCNC(=O)Nc1ccc(Cl)cc1)NC(=O)CCc1nc2ccccc2c(=O)[nH]1

>  <zone of inhibition at 10 µg/disc [mm]>
28

$$$$
>  <Query Smiles>
O=C(CCCc1nc2ccccc2c(=O)[nH]1)N[C@@H](CCCCNC(=O)Nc1ccc(Cl)cc1)C(=O)O

>  <zone of inhibition at 10 µg/disc [mm]>
28

$$$$
>  <Query Smiles>
COC(=O)[C@H](CCCCN)NC(=O)CCCc1nc2ccccc2c(=O)[nH]1

>  <zone of inhibition at 10 µg/disc [mm]>
9

$$$$
>  <Query Smiles>
O=C(CCc1nc2ccccc2c(=O)[nH]1)N[C@@H](CCCCNC(=S)Nc1cccc(F)c1)C(=O)O

>  <zone of inhibition at 10 µg/disc [mm]>
38

$$$$
>  <Query Smiles>
COC(=O)[C@H](CCCCNC(=S)Nc1cccc(F)c1)NC(=O)CCc1nc2ccccc2c(=O)[nH]1

>  <zone of inhibition at 10 µg/disc [mm]>
38

$$$$
>  <Query Smiles>
O=C(CCCc1nc2ccccc2c(=O)[nH]1)N[C@@H](CCCCNC(=O)Nc1cccc(F)c1)C(=O)O

>  <zone of inhibition at 10 µg/disc [mm]>
36

$$$$
>  <Query Smiles>
CC(C)(C)OC(=O)NCCCC[C@H](NC(=O)CCCc1nc2ccccc2c(=O)[nH]1)C(=O)O

>  <zone of inhibition at 10 µg/disc [mm]>
10

$$$$
>  <Query Smiles>
COC(=O)[C@H](CCCCNC(C)=O)NC(=O)CCCc1nc2ccccc2c(=O)[nH]1

>  <zone of inhibition at 10 µg/disc [mm]>
9

$$$$
>  <Query Smiles>
COC(=O)[C@H](CCCCNC(=S)Nc1ccccc1C)NC(=O)CCCc1nc2ccccc2c(=O)[nH]1

>  <zone of inhibition at 10 µg/disc [mm]>
23

$$$$
>  <Query Smiles>
COC(=O)[C@H](CCCCNS(C)(=O)=O)NC(=O)CCc1nc2ccccc2c(=O)[nH]1

>  <zone of inhibition at 10 µg/disc [mm]>
6

$$$$
>  <Query Smiles>
Cc1ccccc1NC(=S)NCCCC[C@H](NC(=O)CCCc1nc2ccccc2c(=O)[nH]1)C(=O)O

>  <zone of inhibition at 10 µg/disc [mm]>
24

$$$$
>  <Query Smiles>
COC(=O)[C@H](CCCCNC(=O)OC(C)(C)C)NC(=O)CCc1nc2ccccc2c(=O)[nH]1

>  <zone of inhibition at 10 µg/disc [mm]>
9

$$$$
>  <Query Smiles>
O=C(CCc1nc2ccccc2c(=O)[nH]1)N[C@@H](CCCCNC(=O)Nc1ccc(Cl)cc1)C(=O)O

>  <zone of inhibition at 10 µg/disc [mm]>
30

$$$$
>  <Query Smiles>
NCCCC[C@H](NC(=O)CCCc1nc2ccccc2c(=O)[nH]1)C(=O)O

>  <zone of inhibition at 10 µg/disc [mm]>
10

$$$$

----------
System: Escherichia coli
Assay: Antibacterial activity against Escherichia coli at 10 ug/disc after 24 hrs by disc diffusion method
Format: functional
Settings: read-out: DIZ
Class label 1: zone of inhibition at 10 µg/disc at least 20 mm. Class label 0: zone of inhibition at 10 µg/disc below 20 mm.

>  <Query Smiles>
Cc1cc(F)ccc1NC(=S)NCCCC[C@H](NC(=O)CCCc1nc2ccccc2c(=O)[nH]1)C(=O)O

>  <Class Name>
label 1

$$$$
>  <Query Smiles>
COc1ccc(NC(=O)NCCCC[C@H](NC(=O)CCCc2nc3ccccc3c(=O)[nH]2)C(=O)O)cc1

>  <Class Name>
label 1

$$$$
>  <Query Smiles>
CS(=O)(=O)NCCCC[C@H](NC(=O)CCCc1nc2ccccc2c(=O)[nH]1)C(=O)O

>  <Class Name>
label 0

$$$$
>  <Query Smiles>
CC(=O)NCCCC[C@H](NC(=O)CCc1nc2ccccc2c(=O)[nH]1)C(=O)O

>  <Class Name>
label 0

$$$$
>  <Query Smiles>
COC(=O)[C@H](CCCCNC(=S)Nc1ccccc1C)NC(=O)CCc1nc2ccccc2c(=O)[nH]1

>  <Class Name>
label 1

$$$$
>  <Query Smiles>
COC(=O)[C@H](CCCCNC(=O)Nc1ccc(OC)cc1)NC(=O)CCCc1nc2ccccc2c(=O)[nH]1

>  <Class Name>
label 1

$$$$
>  <Query Smiles>
COC(=O)[C@H](CCCCNC(=S)Nc1cccc(F)c1)NC(=O)CCCc1nc2ccccc2c(=O)[nH]1

>  <Class Name>
label 1

$$$$
>  <Query Smiles>
Cc1cc(F)ccc1NC(=S)NCCCC[C@H](NC(=O)CCc1nc2ccccc2c(=O)[nH]1)C(=O)O

>  <Class Name>
label 1

$$$$
>  <Query Smiles>
CC(=O)NCCCC[C@H](NC(=O)CCCc1nc2ccccc2c(=O)[nH]1)C(=O)O

>  <Class Name>
label 0

$$$$
>  <Query Smiles>
COC(=O)[C@H](CCCCNC(=O)OC(C)(C)C)NC(=O)CCCc1nc2ccccc2c(=O)[nH]1

>  <Class Name>
label 0

$$$$
>  <Query Smiles>
O=C(CCCc1nc2ccccc2c(=O)[nH]1)N[C@@H](CCCCNC(=S)Nc1cccc(F)c1)C(=O)O

>  <Class Name>
label 1

$$$$
>  <Query Smiles>
COC(=O)[C@H](CCCCNC(=S)Nc1ccc(F)cc1C)NC(=O)CCCc1nc2ccccc2c(=O)[nH]1

>  <Class Name>
label 1

$$$$
>  <Query Smiles>
CN[C@@H]1[C@H](O[C@H]2[C@H](O[C@H]3[C@H](O)[C@@H](O)[C@H](N=C(N)N)[C@@H](O)[C@@H]3N=C(N)N)O[C@@H](C)[C@]2(O)C=O)O[C@@H](CO)[C@H](O)[C@H]1O

>  <Class Name>
label 1

$$$$
>  <Query Smiles>
COC(=O)[C@H](CCCCNC(=O)Nc1cccc(F)c1)NC(=O)CCc1nc2ccccc2c(=O)[nH]1

>  <Class Name>
label 1

$$$$

----------
Test system: Escherichia coli
Experiment: Antibacterial activity against Escherichia coli at 10 ug/disc after 24 hrs by disc diffusion method
Assay type: functional
Settings: read-out: DIZ
Class yes: zone of inhibition at 10 µg/disc at least 20 mm. Class no: zone of inhibition at 10 µg/disc below 20 mm.

>  <Query Smiles>
COC(=O)[C@H](CCCCNC(=O)Nc1cccc(F)c1)NC(=O)CCCc1nc2ccccc2c(=O)[nH]1

>  <Class Name>
yes

$$$$
>  <Query Smiles>
O=C(CCc1nc2ccccc2c(=O)[nH]1)N[C@@H](CCCCNC(=O)Nc1cccc(F)c1)C(=O)O

>  <Class Name>
yes

$$$$
>  <Query Smiles>
NCCCC[C@H](NC(=O)CCc1nc2ccccc2c(=O)[nH]1)C(=O)O

>  <Class Name>
no

$$$$
>  <Query Smiles>
COC(=O)[C@H](CCCCNS(C)(=O)=O)NC(=O)CCCc1nc2ccccc2c(=O)[nH]1

>  <Class Name>
no

$$$$
>  <Query Smiles>
CS(=O)(=O)NCCCC[C@H](NC(=O)CCc1nc2ccccc2c(=O)[nH]1)C(=O)O

>  <Class Name>
no

$$$$
>  <Query Smiles>
COC(=O)[C@H](CCCCN)NC(=O)CCc1nc2ccccc2c(=O)[nH]1

>  <Class Name>
no

$$$$
>  <Query Smiles>
COC(=O)[C@H](CCCCNC(=O)Nc1ccc(OC)cc1)NC(=O)CCc1nc2ccccc2c(=O)[nH]1

>  <Class Name>
yes

$$$$
>  <Query Smiles>
COC(=O)[C@H](CCCCNC(=S)Nc1ccc(F)cc1C)NC(=O)CCc1nc2ccccc2c(=O)[nH]1

>  <Class Name>
yes

$$$$
>  <Query Smiles>
Cc1ccccc1NC(=S)NCCCC[C@H](NC(=O)CCc1nc2ccccc2c(=O)[nH]1)C(=O)O

>  <Class Name>
yes

$$$$
